- STUDY SYSTEM: GSK3α (Homo sapiens)
- Sequence (P49840 whole entry): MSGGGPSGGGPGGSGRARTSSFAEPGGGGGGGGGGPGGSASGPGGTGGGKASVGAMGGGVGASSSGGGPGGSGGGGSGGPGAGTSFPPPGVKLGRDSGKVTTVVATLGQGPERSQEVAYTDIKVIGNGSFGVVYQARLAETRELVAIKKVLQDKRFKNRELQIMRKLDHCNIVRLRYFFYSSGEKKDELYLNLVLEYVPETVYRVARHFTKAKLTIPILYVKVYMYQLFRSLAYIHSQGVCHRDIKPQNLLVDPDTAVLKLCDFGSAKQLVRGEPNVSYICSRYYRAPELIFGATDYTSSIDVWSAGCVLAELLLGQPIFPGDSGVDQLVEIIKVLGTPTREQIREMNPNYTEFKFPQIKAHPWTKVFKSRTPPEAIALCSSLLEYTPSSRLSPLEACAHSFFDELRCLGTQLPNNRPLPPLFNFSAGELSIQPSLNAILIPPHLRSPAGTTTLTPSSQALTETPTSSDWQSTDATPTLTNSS
- EXPERIMENTAL PROTOCOL: GSK 3α enzyme inhibition (FRET), Method 1
- Type: biochemical
- ASSAY SETUP: Table 4a1
pIC50: −log10 of the molar value.
REPORTED PROPERTY: pIC50

Here is how some molecules turned out for pIC50.
molecule="COc1ccc(-n2nc(C3CCOC3)cc2NC(=O)Nc2ccc(Oc3ccnc(Nc4cc(OC)cc(C(=O)NCCN5CCOCC5)c4)n3)c3ccccc23)cc1 (stereo not drawn)" reported_value=5.92
molecule=COc1cc(Nc2nccc(Oc3ccc(NC(=O)Nc4cc(C(C)C)nn4-c4ccc(C)cc4)c4ccccc34)n2)cc(C(=O)N2CCOCC2)c1 reported_value=6.29
molecule=Cc1ccc(-n2nc(C(C)C)cc2NC(=O)Nc2ccc(Oc3ccnc(Nc4cccc(C(=O)NCCN5CCOCC5)c4)n3)c3ccccc23)cc1 reported_value=5.91
molecule=COc1cc(Nc2nccc(Oc3ccc(NC(=O)Nc4cc(C(C)(C)C)nn4-c4ccc(C)cc4)c4ccccc34)n2)cc(C(=O)NCCN(C)C)c1 reported_value=6.71
molecule=COc1ccc(-n2nc(C(C)C)cc2NC(=O)Nc2ccc(Oc3ccnc(Nc4cc(C)cc(C(=O)NCCN5CCOCC5)c4)n3)c3ccccc23)cc1 reported_value=5.79

1. COc1cc(Nc2nccc(Oc3ccc(NC(=O)Nc4cc(C(C)(C)C)nn4-c4ccc(C)cc4)c4ccccc34)n2)cc(C(=O)NCCN2CCOCC2)c1
2. COc1cc(Nc2cc(Oc3ccc(NC(=O)Nc4cc(C(C)(C)C)nn4-c4ccc(C)cc4)c4ccccc34)ccn2)cc(C(=O)NCCN2CCOCC2)c1
3. COc1ccc(-n2nc(C(C)(C)C)cc2NC(=O)Nc2ccc(Oc3ccnc(Nc4cc(OC)cc(C(N)=O)c4)n3)c3ccccc23)cc1
Sort ascending by pIC50. A complete answer lists every label in the requested sequence.
2, 3, 1
(2: 5.54, 3: 5.92, 1: 6.61)

1. COc1cc(Nc2nccc(Oc3ccc(NC(=O)Nc4cc(C(C)C)nn4-c4ccc(C)cc4)c4ccccc34)n2)cc(C(=O)N2CCN(C)CC2)c1
2. COc1cc(Nc2nccc(Oc3ccc(NC(=O)Nc4cc(C(C)C)nn4-c4ccc(C)cc4)c4ccccc34)n2)cc(C(=O)NCCN(C)C)c1
Param pair: 1 , 2 . Output: the one whose pIC50 is numerically greater. Record your answer as the label of the chosen record.
1
(1: 6.55, 2: 5.83)

P. COCCOc1cccc(-n2nc(C(C)(C)C)cc2NC(=O)Nc2ccc(Oc3ccnc(Nc4cc(OC)cc(C(=O)NCCN5CCOCC5)c4)n3)c3ccccc23)c1
Q. COc1cc(Nc2cc(Oc3ccc(NC(=O)Nc4cc(C(C)C)nn4-c4ccc(C)cc4)c4ccccc34)ncn2)cc(C(=O)NCCN2CCOCC2)c1
R. COCCNC(=O)c1cc(Nc2nccc(Oc3ccc(NC(=O)Nc4cc(C(C)(C)C)nn4-c4ccc(C)cc4)c4ccccc34)n2)cc(OC)c1
S. Cc1ccc(-n2nc(C(C)(C)C)cc2NC(=O)Nc2ccc(Oc3ccnc(Nc4cc(Br)cc(C(=O)NCCN5CCOCC5)c4)n3)c3ccccc23)cc1
Order the 4 molecules from highest to lowest pIC50. Reply: labels, ordered per the request.
P, R, S, Q

A. Cc1csc(-n2nc(C(C)(C)C)cc2NC(=O)Nc2ccc(Oc3ccnc(Nc4cccc(C(=O)NCCN5CCOCC5)c4)n3)c3ccccc23)c1
B. CNC(=O)c1cccc(Nc2nccc(Oc3ccc(NC(=O)Nc4cc(C(C)(C)C)nn4-c4ccc(C)cc4)c4ccccc34)n2)c1
Identify the entry with the larger pIC50. Options: A and B Write the label of whichever entry you select.
A
(A: 6.68, B: 5.85)

###

- STUDY SYSTEM: Syk (Homo sapiens)
- EXPERIMENTAL PROTOCOL: Syk enzyme inhibition (FRET)
- Type: biochemical
- ASSAY SETUP: Table 4a1
REPORTED PROPERTY: IC50 (nM)

Example entries and their recorded answers appear below.
smiles_structure=COc1cc(Nc2nccc(Oc3ccc(NC(=O)Nc4cc(C(F)(F)F)nn4-c4ccc(C)cc4)c4ccccc34)n2)cc(C(=O)NCCN2CCOCC2)c1 reported_property=IC50 reported_value=78
smiles_structure=COc1ccc(C(=O)NCCN(C)C)cc1Nc1nccc(Oc2ccc(NC(=O)Nc3cc(C(C)(C)C)nn3-c3ccc(C)cc3)c3ccccc23)n1 reported_property=IC50 reported_value=147
smiles_structure=COc1cc(Nc2nccc(Oc3ccc(NC(=O)Nc4cc(C(C)C)nn4-c4ccc(C)cc4)c4ccccc34)n2)cc(C(=O)NCCN(C)C)c1 reported_property=IC50 reported_value=7

I. Cc1ccc(-n2nc(C(C)(C)C)cc2NC(=O)Nc2ccc(Oc3ccnc(Nc4cc(C)cc(C(N)=O)c4)n3)c3ccccc23)cc1
II. COc1cc(Nc2nccc(Oc3ccc(NC(=O)Nc4cc(C(C)(C)C)nn4-c4ccc(C)cc4)c4ccccc34)n2)cc(C(=O)NCCN2CCOCC2)c1
For this pair, I and II , which shows a numerically higher IC50? Refer to your chosen item by its label in the answer.
I
(I: 9 nM, II: 6 nM)

###

Listing: IC50 of selected molecules
- Test system: ICAM-1 expression, BEAS2B cells
- EXPERIMENTAL PROTOCOL: Poly I:C-induced ICAM-1 expression in BEAS2B cells
- Type: cell-based
- ASSAY SETUP: Homo sapiens, BEAS-2B; read-out: Poly IC induced ICAM1 in BEAS2B, IC50
Just the number please, in nM, no unit attached.

Sample records with IC50:
smiles_structure=COc1ccc(-n2nc(C(C)(C)C)cc2NC(=O)Nc2ccc(Oc3ccnc(Nc4cccc(C(=O)NCCN5CCOCC5)c4)n3)c3ccccc23)cc1 reported_property=IC50 reported_value=0.8
smiles_structure=COc1cc(Nc2nccc(Oc3ccc(NC(=O)Nc4cc(C(C)C)nn4-c4ccc(C)c(C)c4)c4ccccc34)n2)cc(C(=O)NCCN2CCOCC2)c1 reported_property=IC50 reported_value=85.4

Consider now this further molecule.
Give ICAM-1 expression, BEAS2B cells IC50 for the following molecule: COc1cc(Nc2nccc(Oc3ccc(NC(=O)Nc4cc(C(C)C)nn4-c4ccc(C)cc4)c4ccccc34)n2)cc(C(=O)N2CCOCC2)c1
2.5

###

- System: ICAM-1 expression, BEAS2B cells
- EXPERIMENTAL PROTOCOL: Poly I:C-induced ICAM-1 expression in BEAS2B cells
- Type: cell-based
- ASSAY SETUP: Homo sapiens, BEAS-2B; read-out: Poly IC induced ICAM1 in BEAS2B, IC50
REPORTED PROPERTY: pIC50
By convention, pIC50 is the negative base-10 log of a molar concentration.

Reference set, count: 4
smiles_structure=COc1ccc(C(=O)NCCO)cc1Nc1nccc(Oc2ccc(NC(=O)Nc3cc(C(C)C)nn3-c3ccc(C)cc3)c3ccccc23)n1 reported_value=7.06
smiles_structure=COc1ccc(-n2nc(C(C)C)cc2NC(=O)Nc2ccc(Oc3cc(Nc4cc(OC)cc(C(=O)NCCN5CCOCC5)c4)ncn3)c3ccccc23)cc1 reported_value=8.52
smiles_structure=COc1cc(Nc2nccc(Oc3ccc(NC(=O)Nc4cc(C(C)(C)C)nn4-c4ccc(C)cc4)c4ccccc34)n2)cc(C(=O)NCCO)c1 reported_value=9.00
smiles_structure=COc1ccc(-n2nc(C(C)C)cc2NC(=O)Nc2ccc(Oc3ccnc(Nc4cc(OC)cc(C(=O)NCCN5CCOCC5)c4)n3)c3ccccc23)cc1 reported_value=8.40

Specify reported pIC50 for the molecule shown: COc1cc(Nc2nccc(Oc3ccc(NC(=O)Nc4cc(C(F)(F)C(F)(F)F)nn4-c4ccc(C)cc4)c4ccccc34)n2)cc(C(=O)NCCN2CCOCC2)c1
8.16

Quickly give me recorded pIC50 for CCCNC(=O)c1cccc(Nc2nccc(Oc3ccc(NC(=O)Nc4cc(C(C)(C)C)nn4-c4ccc(OC)cc4)c4ccccc34)n2)c1
8.59

Give the measured pIC50 for COc1ccc(C(=O)NCCN(C)C)cc1Nc1nccc(Oc2ccc(NC(=O)Nc3cc(C(C)(C)C)nn3-c3ccc(C)cc3)c3ccccc23)n1
7.82

Give a short answer stating reported pIC50 for COc1cc(C(=O)NCCO)ccc1Nc1nccc(Oc2ccc(NC(=O)Nc3cc(C(C)(C)C)nn3-c3ccc(C)cc3)c3ccccc23)n1 .
8.34

Fill in reported pIC50 for this entry: COc1cc(Nc2cc(Oc3ccc(NC(=O)Nc4cc(C(C)C)nn4-c4ccc(C)cc4)c4ccccc34)ncn2)cc(C(=O)NCCN2CCOCC2)c1
8.14

Let me know recorded pIC50 for COc1ccc(-n2nc(C(C)(C)C)cc2NC(=O)Nc2ccc(Oc3ccnc(Nc4cc(Br)cc(C(N)=O)c4)n3)c3ccccc23)cc1 , thanks.
8.64

Let me know recorded pIC50 for COc1ccc(Nc2nccc(Oc3ccc(NC(=O)Nc4cc(C(C)C)nn4-c4ccc(C)cc4)c4ccccc34)n2)cc1C(=O)NCCN1CCOCC1 , thanks.
8.05

Quickly give me recorded pIC50 for Cc1ccc(-n2nc(C(C)(C)C)cc2NC(=O)Nc2ccc(Oc3ccnc(Nc4cccc(C(=O)N(C)C)c4)n3)c3ccccc23)cc1
7.95
